experimental system: Amine oxidase [flavin-containing] A (Rattus norvegicus)
assay procedure: In vitro inhibitory concentration against Monoamine oxidase A of rat brain homogenates; value ranges from 1.8-2.4
Type: tissue-based
pIC50: −log10 of the molar value.

{"compound": "C#CCNC1CCc2ccc(OC(=O)N(C)C)cc2C1 (stereo unspecified)", "pIC50": 5.70}

* * *

experimental system: Amine oxidase [flavin-containing] A (Rattus norvegicus)
Sequence (P21396 whole entry): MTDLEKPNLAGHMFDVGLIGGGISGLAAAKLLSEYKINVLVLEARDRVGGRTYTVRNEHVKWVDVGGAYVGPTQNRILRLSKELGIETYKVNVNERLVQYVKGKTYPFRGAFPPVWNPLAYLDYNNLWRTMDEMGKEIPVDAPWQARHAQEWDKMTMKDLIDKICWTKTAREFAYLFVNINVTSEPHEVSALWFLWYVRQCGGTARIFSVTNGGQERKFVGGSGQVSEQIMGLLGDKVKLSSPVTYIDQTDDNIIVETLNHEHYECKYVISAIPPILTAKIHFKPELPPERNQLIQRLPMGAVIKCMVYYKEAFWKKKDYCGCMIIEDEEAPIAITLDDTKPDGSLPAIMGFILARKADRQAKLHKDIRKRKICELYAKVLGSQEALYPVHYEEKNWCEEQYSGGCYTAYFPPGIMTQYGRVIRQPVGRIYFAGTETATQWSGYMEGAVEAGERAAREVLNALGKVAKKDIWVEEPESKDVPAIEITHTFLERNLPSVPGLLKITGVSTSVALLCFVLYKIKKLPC
assay procedure: In vitro inhibitory concentration against Monoamine oxidase A of rat brain homogenates; value ranges from 290-920
Type: tissue-based
pIC50: −log10 of the molar value.

{"compound": "CCNC1CCc2ccc(OC(=O)N(C)C)cc21 (stereo unspecified)", "experimental system": "Amine oxidase [flavin-containing] A (Rattus norvegicus)", "pIC50": 3.30}
